Target: Bcl-xL, Q07817
Sequence (Q07817 1-209): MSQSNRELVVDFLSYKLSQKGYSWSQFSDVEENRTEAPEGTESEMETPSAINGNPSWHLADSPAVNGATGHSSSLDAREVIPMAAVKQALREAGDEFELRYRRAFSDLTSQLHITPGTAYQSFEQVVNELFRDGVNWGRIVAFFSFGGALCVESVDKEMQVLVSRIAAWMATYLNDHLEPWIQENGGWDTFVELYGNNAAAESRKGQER
Test: peptide SPOT array, c-Myc-tagged receptor at 1 uM or 100 nM, anti-c-Myc-Cy3
Endpoint: SPOT signal as a fraction of Bim BH3's signal on the same receptor and array

Examples with their reported SPOT signal as a fraction of Bim BH3's signal on the same receptor and array follow.
{"Binder": "ELDEDDLEAELDALGDELLADEDSSY [CHMP5]", "Measured value": 0.06}
{"Binder": "SHALICISHWILGILDRHLNNFMVAM [PRKDC]", "Measured value": 0.03}
{"Binder": "PKELEGYIQKLQNAAERLATENRKLR [DYNC2H1]", "Measured value": 0.09}
{"Binder": "IQENVDISTVYQIFLDEVLGSGQFGI [PRKD3]", "Measured value": 0.08}
{"Binder": "TIRNGHDSELLRSLAEELPLEQGFTI [PLCD4]", "Measured value": 0.02}

1 = FRFAQLCGLHDVIHADELEELMCYYQ [CLTCL1]
2 = AHKARALARLLRQTLLAAFSDFKRLQ [FAM43B]
*Q* Which of the two gives a bigger number for SPOT signal as a fraction of Bim BH3's signal on the same receptor and array: 1 or 2 ? Choose, then provide that item's label.
*A* 2
(2: 0.59, 1: 0.02)

A = RLAHEHHCLRDKILGDCYYCVSGLPE [ADCY8]
B = NKTMTQLSSTLARCAKDILGFAVMFF [PKD2L1]
C = KRALIQCAKDDAKASDEVTRLAKEVA [VCL]
*Q* Task for the reader: rank each entry by its SPOT signal as a fraction of Bim BH3's signal on the same receptor and array, from the minimum upward. Provide the labels, sequenced as the question asks.
*A* A, C, B
